- test_method_notes: Binding affinity to sigma2 receptor (unknown origin)
- Set-up: species or system Homo sapiens
outcome_measure: Ki (µM)
Please give a number only; it is taken to be in µM.

// returns reported Ki for input `Ic1ccc(CN2CCC3(CC2)OCc2ccccc23)cc1`
0.34

* * *

Known Ki of a selection of molecules
- test_method_notes: Displacement of [3H]-1,3-di-o-tolylguanidine from rat liver sigma2 receptor by competitive binding assay
Please give a number only; it is taken to be in nM.

// returns reported Ki for input `FCCOCCOCCOc1ccc(CN2CCC3(CC2)OCc2ccccc23)cc1`
592

// returns reported Ki for input `FCCOCCOc1ccc(CN2CCC3(CC2)OCc2ccccc23)cc1`
860

// returns reported Ki for input `O=C(CCCN1CCC(O)(c2ccc(Cl)cc2)CC1)c1ccc(F)cc1`
20.7

// returns reported Ki for input `FCCOc1ccc(CN2CCC3(CC2)OCc2ccccc23)cn1`
327

// returns reported Ki for input `Fc1ccc(CN2CCC3(CC2)OCc2ccccc23)cc1`
106
